For each of the molecules below, state its Potency.
TEST DESCRIPTION: qHTS Assay for Lipid Storage Modulators: COS7 Assay against Probe and Analogs
ASSAY CONTEXT: COS7 lipid droplet area, BODIPY imaging, 18 h
Results filed as inconclusive are left out. Active and inactive are the calls of the source. Calls follow the shape of the dose curve; as a rule, active = well fitted inhibition curve with a large enough effect; inconclusive = small, poorly fitted or top-dose-only effect; inactive = no such curve, though single readings can be large or run the other way.

Below, each entry is followed by its recorded Potency result.
Exam item: For the molecule shown here, CCOc1ccc(CCNC(=O)c2cc3ccccc3n2Cc2ccccn2)cc1OCC , give the reported Potency.
Marked response: 1.66 µM (active)

Exam item: For the molecule shown here, CCOC(=O)C1CCN(C(=O)C2(NC(=O)Nc3ccccc3Cl)CCCC2)CC1 , give the reported Potency.
Marked response: 5.87 µM (active)

Batch request: Potency for each of the following molecules.
1. CCOc1ccc(CCNC(=O)c2cc3ccccc3n2Cc2cccc(C)c2)cc1OCC
2. CCOc1ccc(CCNC(=O)c2cc3ccccc3n2CCN2CCOCC2)cc1OCC

Marked response:
1. 0.264 µM (active)
2. 5.26 µM (active)

---

TEST DESCRIPTION: qHTS Assay for Lipid Storage Modulators: COS7 Assay against Probe and Analogs
ASSAY CONTEXT: COS7 lipid droplet area, BODIPY imaging, 18 h
Records with an inconclusive call do not appear.
MEASUREMENT KIND: max response (%)
One number for each entry, in %.

Exam item: For the compound shown here, CCOc1ccc(CCNC(=O)c2ccccc2)cc1OCC , give the reported max response.
Marked response: -7.94

Exam item: For the compound shown here, CCOc1ccc(CCNC(=O)c2cc3ccncc3n2Cc2cccc(C)n2)cc1OCC , give the reported max response.
Marked response: -22.2

Exam item: For the compound shown here, CCOc1ccc(CCNC(=O)c2cc3ccncc3n2Cc2cccc(C)c2)cc1OCC , give the reported max response.
Marked response: -1.73

// switching to the query compound
Exam item: For the compound shown here, CCOc1ccc(CCNC(=O)c2cc3ncccc3n2Cc2cccc(C)c2)cc1OCC , give the reported max response.
Marked response: 6.92

From: PubChem BioAssay AID652283
